Data provenance is patent US20140348785A1.

Catalogue of Kd readings, one per entry.
biological target: soluble gp41 MPER peptide RRR-(656-683)-RRR; assay: kinetic binding (ka/kd)
Report as a plain number; the unit µM is understood.

Examples with answers:
{"binder": "Y100eA (heavy chain) (antibody, V domains shown) VH: EVQLVESGGGLVKPGGSLRLSCSASGFDFDNAWMTWVRQPPGKGLEWVGRITGPGEGWSVDYAAPVEGRFTISRLNSINFLYLEMNNLRMEDSGLYFCARTGKYYDFWSGAPPGEEYFQDWGRGTLVTVSS VL: SYELTQETGVSVALGRTVTITCRGDSLRSHYASWYQKKPGQAPILLFYGKNNRPSGVPDRFSGSASGNRASLTISGAQAEDDAEYYCSSRDKSGSRLSVFGGGTKLTVL", "endpoint_unit": "µM", "Kd": 0.0759}
{"binder": "10E8 IgG alanine variant E53A (heavy chain, Kabat) (antibody, V domains shown) VH: EVQLVESGGGLVKPGGSLRLSCSASGFDFDNAWMTWVRQPPGKGLEWVGRITGPGAGWSVDYAAPVEGRFTISRLNSINFLYLEMNNLRMEDSGLYFCARTGKYYDFWSGYPPGEEYFQDWGRGTLVTVSS VL: SYELTQETGVSVALGRTVTITCRGDSLRSHYASWYQKKPGQAPILLFYGKNNRPSGVPDRFSGSASGNRASLTISGAQAEDDAEYYCSSRDKSGSRLSVFGGGTKLTVL", "endpoint_unit": "µM", "Kd": 0.395}

Next binder, Kd to be filled in.
Query: Reported Kd for D28A (heavy chain) (antibody, V domains shown) VH: EVQLVESGGGLVKPGGSLRLSCSASGFAFDNAWMTWVRQPPGKGLEWVGRITGPGEGWSVDYAAPVEGRFTISRLNSINFLYLEMNNLRMEDSGLYFCARTGKYYDFWSGYPPGEEYFQDWGRGTLVTVSS VL: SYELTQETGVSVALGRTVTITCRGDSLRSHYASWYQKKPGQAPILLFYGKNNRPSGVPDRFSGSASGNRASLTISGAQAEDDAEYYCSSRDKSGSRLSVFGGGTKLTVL : what is it?
Response: 0.0143
